Data credit: patent US9695155B2

Tested on: pigweed
Measurement Description: Test C preemergence
Assay type: in vivo, Amaranthus retroflexus
Condition: 16 g ai/ha, preemergence; scale 0 to 100 (0 no effect, 100 complete control)
Measurement Type: Pigweed plant response rating

• NC(=S)c1cccc(Oc2ncc(Cl)cn2)c1-n1cc(Cl)cn1 = 100
• Cc1cnc(Oc2cccc(C#N)c2-n2cc(C(F)(F)F)cn2)nc1 = 85
• FC(F)Oc1cnn(-c2c(Cl)cccc2Oc2ncc(Cl)cn2)c1 = 100
• Fc1cnc(Oc2cccc(C(F)F)c2-n2cc(C(F)(F)F)cn2)nc1 = 98

* * *

Measured Barnyardgrass plant response rating, listed per entry.
Test system: barnyardgrass
Measurement Description: Test E preemergence
Assay type: in vivo, Echinochloa crus-galli
Condition: 31 g ai/ha, preemergence, scale 0 to 100 (0 no effect, 100 complete control)
Measurement Type: Barnyardgrass plant response rating

• Cc1cnc(Oc2cccc(C#N)c2-n2cc(C#N)cn2)nc1 [Compound 90] = 0
• N#Cc1cccc(Oc2ncc(Cl)cn2)c1-n1cc(Br)cn1 [Compound 52] = 0
• Cc1cnc(Oc2cccc(C#N)c2-n2cc(C(F)(F)F)cn2)nc1 [Compound 180] = 20
• N#Cc1cnn(-c2c(C#N)cccc2Oc2ncc(Cl)cn2)c1 [Compound 200] = 0
• N#Cc1cccc(Oc2ncc(Cl)cn2)c1-n1cc(Cl)cn1 [Compound 72] = 0

* * *

Test system: pigweed
Measurement Description: Test A preemergence
Format: in vivo, Amaranthus retroflexus
Condition: 125 g ai/ha, 0 to 100 scale where 0 is no effect and 100 is complete control
Measured Plant response rating, Pigweed, listed per entry.
Measurement Type: Plant response rating, Pigweed

• C=C(C)c1cnn(-c2ccccc2Oc2ncc(Cl)cn2)c1 = 0
• CC(C)Oc1cnn(-c2c(C#N)cccc2Oc2ncc(Cl)cn2)c1 = 100
• N#Cc1cnn(-c2c(C#N)cccc2Oc2ncc(Br)cn2)c1 = 100
• N#Cc1cccc(Oc2ncc(Cl)cn2)c1-n1cc(SC(F)(F)F)cn1 = 90
• Fc1cnc(Oc2cccc(Cl)c2-n2cc(OC(F)F)cn2)nc1 = 100
• FC(F)Oc1cnn(-c2ccccc2Oc2ncc(Cl)cn2)c1 = 100
• Clc1ccc(-n2cccn2)c(Oc2ncc(Br)cn2)c1 = 0
• CC(C)c1cnn(-c2c(C#N)cccc2Oc2ncc(Cl)cn2)c1 = 100
• CC=Cc1cnn(-c2ccccc2Oc2ncc(Cl)cn2)c1 = 10
• Fc1cnc(Oc2cccc(Br)c2-n2cc(OCC(F)(F)F)cn2)nc1 = 90

* * *

Measured Pigweed, Palmer plant response rating, listed per entry.
Test system: palmer pigweed
Measurement Description: Test E preemergence
Assay type: in vivo, Amaranthus palmeri
Condition: 31 g ai/ha, scale 0 to 100 (0 no effect, 100 complete control)
Measurement Type: Pigweed, Palmer plant response rating

- NC(=S)c1cccc(Oc2ncc(Cl)cn2)c1-n1cc(Cl)cn1: 35
- Cc1cnc(Oc2cccc(C#N)c2-n2cc(C#N)cn2)nc1: 0
- Cc1cnc(Oc2cccc(C#N)c2-n2cc(C(F)(F)F)cn2)nc1: 0
- N#Cc1cccc(Oc2ncc(Cl)cn2)c1-n1cc(Cl)cn1: 100

* * *

Measured Plant response rating, Ryegrass, Italian, listed per entry.
Tested on: Italian ryegrass
Measurement Description: Test A preemergence
Format: in vivo, Lolium multiflorum
Condition: 125 g ai/ha, 0 to 100 scale where 0 is no effect and 100 is complete control
Measurement Type: Plant response rating, Ryegrass, Italian

• Cc1cnc(Oc2cccc(C#N)c2-n2cc(C#N)cn2)nc1 = 0
• N#Cc1cnn(-c2c(Br)cccc2Oc2ncc(Cl)cn2)c1 = 0
• N#Cc1cnn(-c2c(Cl)cccc2Oc2ncc(Cl)cn2)c1 = 20
• FC(F)(F)COc1cnn(-c2c(Cl)cccc2Oc2ncc(Cl)cn2)c1 = 20
• Fc1cnc(Oc2cccc(Cl)c2-n2cc(OC(F)F)cn2)nc1 = 0
